tested on: SGC7901 cells; assay: CCK-8 cell viability assay, SGC7901; format: cell-based; settings: Homo sapiens, SGC-7901; CCK-8 assay, 48 h
Measured Parameter: IC50
Put down the number, then write its unit next to it.

In: Recorded IC50 for COc1ccc(Nc2cc(C)nc(Nc3ccc(-c4cc5ccccc5o4)cc3)n2)cc1 [Compound 163N] with SGC7901 cells, please?
Out: 21.2 µM

* * *

Measured pIC50 accompanies every entry in the list below.
tested on: HL60 cells; assay: CCK-8 cell viability assay, HL60; assay type: cell-based; conditions: Homo sapiens, HL-60; CCK-8 assay
pIC50: −log10 of the molar value.

Before answering, review these 4 worked examples.
{"Compound": "COc1cccc(/C=C/c2cc(N)cc(O)n2)c1", "Measured Parameter": "pIC50", "Reported Value": "< 4.00"}
{"Compound": "N/C(=N\\[N+](=O)[O-])N/N=C/c1ccc(-c2ccc(-n3cnnn3)cc2)o1", "Measured Parameter": "pIC50", "Reported Value": "< 4.00"}
{"Compound": "CCOC(=O)c1c(-c2ccccc2)oc2ccc(O)cc12", "Measured Parameter": "pIC50", "Reported Value": 4.50}
{"Compound": "COc1ccc(Nc2cc(C)nc(Nc3ccc(-c4cc5ccccc5o4)cc3)n2)cc1 [Compound 163N]", "Measured Parameter": "pIC50", "Reported Value": 4.90}

In: What does the record list as pIC50 for COc1ccccc1/C=C/c1cc(O)cc(=O)[nH]1 ?
Out: < 4.00

In: Query: pIC50; subject: O=C(Nc1ccc(-c2cc3ccccc3o2)cc1)c1ccco1
Out: < 4.00

In: Fill blank: measured pIC50 of the compound Nc1cc(O)nc(/C=C/c2ccco2)c1 is ____.
Out: < 4.00

In: What value of pIC50 has been recorded for this entry: CCOC(=O)c1cnc2c(/N=N/c3ccc(OCC)cc3)c(N)nn2c1N
Out: < 4.00

In: // returns reported pIC50 for input COc1cccc(-c2cc3c([N+](=O)[O-])cc([N+](=O)[O-])cc3[nH]2)c1OC
Out: < 4.00

In: Which pIC50 is reported for this compound? CC(=O)Nc1ccc(/N=C/c2c(C)c(C#N)c3[nH]c4cc(C)ccc4n3c2=O)cc1
Out: < 4.00

* * *

Target: ATG4B (Homo sapiens, UniProt Q9Y4P1)
Sequence (Q9Y4P1 1-393): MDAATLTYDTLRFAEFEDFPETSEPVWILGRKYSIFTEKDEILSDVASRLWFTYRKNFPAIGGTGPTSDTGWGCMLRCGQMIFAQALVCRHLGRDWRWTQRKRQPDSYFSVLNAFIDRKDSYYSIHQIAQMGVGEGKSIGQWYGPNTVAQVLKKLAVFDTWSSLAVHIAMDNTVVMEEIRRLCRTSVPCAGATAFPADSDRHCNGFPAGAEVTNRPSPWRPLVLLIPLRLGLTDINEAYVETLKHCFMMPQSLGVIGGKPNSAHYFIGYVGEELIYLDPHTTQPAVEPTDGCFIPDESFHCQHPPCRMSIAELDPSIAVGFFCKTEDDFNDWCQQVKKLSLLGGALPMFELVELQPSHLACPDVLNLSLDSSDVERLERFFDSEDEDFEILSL
pIC50: −log10 of the molar value.
Record TRUE whenever pIC50 is at 5 or higher; record FALSE when lower.

{"Mol": "CCOC(=O)c1c(-c2ccccc2)oc2ccc(O)cc12", "Cat": "TRUE"}

Below: the item to evaluate.
In: Textbook exercise: given the entry CCOC(=O)c1cnc2c(/N=N/c3ccc(OCC)cc3)c(N)nn2c1N , state whether its pIC50 is greater than or equal to 5.
Out: FALSE
